- studySystem: HLA-A*02:03
- assayNotes: IEDB peptide-MHC binding, purified MHC/competitive/radioactivity; filed as Kd, often an IC50 or EC50 that approximates it; bounds were set here for any values at or beyond the usual limits of such assays
- assayContext: source organism: Vaccinia virus WR
measuredAttribute: Kd

IVDSMIIGHI :: 208 nM
PMIIGEPIIV :: 8840 nM
KQYDSTDFKM :: 3270 nM
AISAVYFKA :: 525 nM
VLEKKVCAI :: 2310 nM
DINVIGLIVI :: 2810 nM
AMHDKKIDIL :: 1180 nM
LLEQLIENI :: 1960 nM
IVVALSSLV :: 3.85 nM
AIFNNRNLA :: 98.1 nM
TLNTLITLIL :: 7.09 nM
RLRQDTEDIV :: 284 nM
TVGMLIYSM :: 6090 nM
SVKYYGRST :: 1160 nM
VQLSNNKYVL :: 9490 nM
GLTTHCTKL :: 30 nM
YLYNKYSFKL :: 0.0349 nM
EIRGVLPEET :: 4870 nM
FITVLTSVDI :: 237 nM
SMSQELAEL :: 7.66 nM
AIFNNRNLAA :: 103 nM
IMECSRMLDT :: 7200 nM
TTNNLLEQL :: 1420 nM
STKADAVVA :: 4950 nM
NVDIIDLLL :: 4090 nM
EVERLMELPV :: 1430 nM
FQESFYEDIA :: 555 nM
TISWMMKLGI :: 972 nM
ILSEKRKDTI :: 541 nM
FIISTLNKIL :: 1.8 nM
IIYSKAGNI :: 12.6 nM
NMCNSDVSV :: 30.3 nM
ETLPELNLSL :: 130 nM
ILEYLYIMRV :: 83.2 nM
SALMTLDDLA :: 2320 nM
RLEVIGLTT :: 13900 nM
VTFINDYANL :: 247 nM
QLLKILDNL :: 319 nM

* * *

- studySystem: HLA-A*32:01
- assayNotes: IEDB peptide-MHC binding, purified MHC/competitive/radioactivity; filed as Kd, often an IC50 or EC50 that approximates it; bounds were set here for any values at or beyond the usual limits of such assays
- assayContext: source organism: Dengue virus 1 Singapore/S275/1990
pKd: −log10 of the molar value.
measuredAttribute: pKd

KQIQRVETW :: 7.68

* * *

- studySystem: HLA-B*48:01
- assayNotes: IEDB peptide-MHC binding, purified MHC/direct/fluorescence; filed as Kd, often an IC50 or EC50 that approximates it; bounds were set here for any values at or beyond the usual limits of such assays
- assayContext: source organism: Yellow fever virus 17D
pKd: −log10 of the molar value.
measuredAttribute: pKd

RRRLRTLVL :: 5.53

* * *

- studySystem: HLA-B*08:01
- assayNotes: IEDB peptide-MHC binding, purified MHC/direct/fluorescence; filed as Kd, often an IC50 or EC50 that approximates it; bounds were set here for any values at or beyond the usual limits of such assays
- assayContext: source organism: Escherichia coli O157:H7
pKd: −log10 of the molar value.
measuredAttribute: pKd

IRNPPMVVF :: ≤ 4.70

* * *

- studySystem: HLA-A*24:02
- assayNotes: IEDB peptide-MHC binding, purified MHC/direct/fluorescence; filed as Kd, often an IC50 or EC50 that approximates it; bounds were set here for any values at or beyond the usual limits of such assays
- assayContext: source organism: Influenza A virus (A/Switzerland/8808/2002(H1N1))
pKd: −log10 of the molar value.
measuredAttribute: pKd

VPAQNAIST :: ≤ 4.70

* * *

- studySystem: HLA-C*05:01
- assayNotes: IEDB peptide-MHC binding, purified MHC/direct/fluorescence; filed as Kd, often an IC50 or EC50 that approximates it; bounds were set here for any values at or beyond the usual limits of such assays
- assayContext: source organism: Toxoplasma gondii RH
measuredAttribute: Kd

FLDPHPYYV :: ≤ 1 nM

* * *

- studySystem: HLA-B*15:01
- assayNotes: IEDB peptide-MHC binding, purified MHC/direct/fluorescence; filed as Kd, often an IC50 or EC50 that approximates it; bounds were set here for any values at or beyond the usual limits of such assays
- assayContext: source organism: Vibrio cholerae
measuredAttribute: Kd

MMFDAMGAL :: 37.2 nM

* * *

- studySystem: HLA-A*26:02
- assayNotes: IEDB peptide-MHC binding, purified MHC/competitive/fluorescence; filed as Kd, often an IC50 or EC50 that approximates it; bounds were set here for any values at or beyond the usual limits of such assays
- assayContext: source organism: Variola virus
measuredAttribute: Kd (nM)

VYSFDESSF :: 192

* * *

- studySystem: HLA-A*33:01
- assayNotes: IEDB peptide-MHC binding, purified MHC/competitive/radioactivity; filed as Kd, often an IC50 or EC50 that approximates it; bounds were set here for any values at or beyond the usual limits of such assays
- assayContext: source organism: Mammarenavirus machupoense
measuredAttribute: Kd

TAVAKCNQNH :: ≥ 68.8 µM

* * *

- studySystem: HLA-B*44:02
- assayNotes: IEDB peptide-MHC binding, purified MHC/competitive/radioactivity; filed as Kd, often an IC50 or EC50 that approximates it; bounds were set here for any values at or beyond the usual limits of such assays
- assayContext: source organism: SARS coronavirus Tor2
pKd: −log10 of the molar value.
Overview of reported pKd across a group of sequences:
measuredAttribute: pKd

TELEPPCRF :: 7.00
EEVVENPTI :: 5.34
FENKTTLPV :: 4.77
QEIQLLAAV :: 7.03

* * *

- studySystem: HLA-A*01:01
- assayNotes: IEDB peptide-MHC binding, purified MHC/direct/fluorescence; filed as Kd, often an IC50 or EC50 that approximates it; bounds were set here for any values at or beyond the usual limits of such assays
- assayContext: source organism: Treponema pallidum
measuredAttribute: Kd

IVDYVTAYG :: 2.52 µM

* * *

- studySystem: HLA-B*39:01
- assayNotes: IEDB peptide-MHC binding, purified MHC/competitive/fluorescence; filed as Kd, often an IC50 or EC50 that approximates it; bounds were set here for any values at or beyond the usual limits of such assays
- assayContext: source organism: Homo sapiens
# Kd annotations
measuredAttribute: Kd

GPSPSHKSV :: ≥ 20 µM
SVDSDHLGY :: ≥ 20 µM

* * *

- studySystem: HLA-C*08:02
- assayNotes: IEDB peptide-MHC binding, purified MHC/direct/fluorescence; filed as Kd, often an IC50 or EC50 that approximates it; bounds were set here for any values at or beyond the usual limits of such assays
- assayContext: source organism: Salmonella enterica subsp. enterica serovar Typhi str. CT18
measuredAttribute: Kd

FAADKDSLY :: ≥ 20 µM

* * *

- studySystem: HLA-B*15:42
- assayNotes: IEDB peptide-MHC binding, purified MHC/competitive/fluorescence; filed as Kd, often an IC50 or EC50 that approximates it; bounds were set here for any values at or beyond the usual limits of such assays
- assayContext: source organism: Corynebacterium glutamicum ATCC 13032
measuredAttribute: Kd

RIFPATHYV :: ≥ 5 µM

* * *

- studySystem: HLA-A*02:01
- assayNotes: IEDB peptide-MHC binding, purified MHC/direct/fluorescence; filed as Kd, often an IC50 or EC50 that approximates it; bounds were set here for any values at or beyond the usual limits of such assays
- assayContext: source organism: Influenza A virus (A/tiger/Thailand/CU-T4/04(H5N1))
measuredAttribute: Kd (nM)

TMLYNKMEF :: 604

* * *

- studySystem: HLA-A*03:01
- assayNotes: IEDB peptide-MHC binding, purified MHC/direct/fluorescence; filed as Kd, often an IC50 or EC50 that approximates it; bounds were set here for any values at or beyond the usual limits of such assays
- assayContext: source organism: Fowlpox virus
measuredAttribute: Kd (nM)

RAFKYPFIK :: 6.8

* * *

- studySystem: HLA-A*29:02
- assayNotes: IEDB peptide-MHC binding, purified MHC/competitive/radioactivity; filed as Kd, often an IC50 or EC50 that approximates it; bounds were set here for any values at or beyond the usual limits of such assays
- assayContext: source organism: Mammarenavirus choriomeningitidis
pKd: −log10 of the molar value.
measuredAttribute: pKd

EIFSMMVSSF :: 5.86

* * *

- studySystem: HLA-B*39:01
- assayNotes: IEDB peptide-MHC binding, purified MHC/competitive/fluorescence; filed as Kd, often an IC50 or EC50 that approximates it; bounds were set here for any values at or beyond the usual limits of such assays
- assayContext: source organism: Bacillus anthracis str. A0488
measuredAttribute: Kd (nM)

FKWGKKIIL :: 12.6

* * *

- studySystem: HLA-B*18:01
- assayNotes: IEDB peptide-MHC binding, purified MHC/competitive/fluorescence; filed as Kd, often an IC50 or EC50 that approximates it; bounds were set here for any values at or beyond the usual limits of such assays
- assayContext: source organism: Vibrio vulnificus YJ016
measuredAttribute: Kd (nM)

EPADHLAIM :: 3000
